Numbers sourced from ChEMBL document CHEMBL2311464.

- Experimental Target: Cyclin-dependent kinase 5/CDK5 activator 1 (Homo sapiens, UniProt Q00535)
- Sequence (Q00535 whole entry): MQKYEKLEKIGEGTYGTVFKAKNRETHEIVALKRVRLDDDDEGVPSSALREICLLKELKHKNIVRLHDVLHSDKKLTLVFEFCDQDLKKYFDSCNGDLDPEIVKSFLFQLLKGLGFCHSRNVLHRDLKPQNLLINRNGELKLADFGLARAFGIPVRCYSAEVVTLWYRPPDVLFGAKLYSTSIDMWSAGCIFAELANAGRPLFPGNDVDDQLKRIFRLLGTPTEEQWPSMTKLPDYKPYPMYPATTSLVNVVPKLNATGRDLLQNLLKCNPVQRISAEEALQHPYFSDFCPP
- Sequence (Q15078 whole entry, further chain): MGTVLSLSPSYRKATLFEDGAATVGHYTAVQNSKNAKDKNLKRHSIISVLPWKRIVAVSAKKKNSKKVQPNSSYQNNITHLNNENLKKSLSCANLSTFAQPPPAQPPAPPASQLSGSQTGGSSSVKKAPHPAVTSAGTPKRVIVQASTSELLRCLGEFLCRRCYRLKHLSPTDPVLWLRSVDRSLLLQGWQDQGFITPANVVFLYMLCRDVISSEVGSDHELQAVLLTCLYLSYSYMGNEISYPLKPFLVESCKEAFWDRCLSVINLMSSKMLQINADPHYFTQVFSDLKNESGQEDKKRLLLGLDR
- Experiment Description: Inhibition of recombinant human CDK5/p25 after 30 mins by scintillation counting
Listed below: IC50 values for each entry.
Your answer is read as nM, so omit the unit and give the number.

1) CC[C@@H](CO)Nc1nc(Nc2ncccn2)c2ncn(C(C)C)c2n1 | 11000
2) CC[C@@H](CO)Nc1nc(Nc2ccnnc2)c2ncn(C(C)C)c2n1 | 42
3) CC(C)[C@H](CO)Nc1nc(Nc2cncnc2)c2ncn(C(C)C)c2n1 | 38
4) CC(C)[C@@H](CO)Nc1nc(Nc2cncnc2)c2ncn(C(C)C)c2n1 | 370
5) CC(C)[C@@H](CO)Nc1nc(Nc2cccnc2)c2ncn(C(C)C)c2n1 | 300
6) CC(C)n1cnc2c(Nc3cnccn3)nc(Cl)nc21 | 12000
7) CC[C@H](CO)Nc1nc(Nc2cncnc2)c2ncn(C(C)C)c2n1 | 42
8) CC[C@@H](CO)Nc1nc(Nc2cncnc2)c2ncn(C(C)C)c2n1 | 76

Exercise: I'd like to know its IC50. The molecule in question is CC(C)[C@H](CO)Nc1nc(Nc2ccncc2)c2ncn(C(C)C)c2n1
Key: 21

Exercise: Please give the result for CC(C)n1cnc2c(Nc3cccnc3)nc(Cl)nc21 too.
Key: 1100

Exercise: Please give the result for CC[C@H](CO)Nc1nc(Nc2ccncc2)c2ncn(C(C)C)c2n1 too.
Key: 17

###

Listed below: IC50 values for each entry.
- Experimental Target: Glycogen synthase kinase-3 (Sus scrofa, UniProt B2LUN4+I6LNT8)
- Experiment Description: Inhibition of porcine GSK-3alpha/beta using YRRAAVPPSPSLSRHSSPHQSpEDEEE as substrate measured after 30 mins by scintillation counting

1. CC(C)n1cnc2c(Nc3ccccn3)nc(Cl)nc21 | > 10 µM

Exercise: I'd like to know its IC50. The compound in question is CC(C)n1cnc2c(Nc3ccnnc3)nc(Cl)nc21
Key: > 10 µM

Exercise: Please give the result for CC(C)n1cnc2c(Nc3ccncn3)nc(Cl)nc21 too.
Key: > 10 µM

Exercise: Please give the result for CC[C@H](CO)Nc1nc(Nc2cncnc2)c2ncn(C(C)C)c2n1 too.
Key: > 10 µM

Exercise: Please give the result for CC(C)[C@@H](CO)Nc1nc(Nc2ccccn2)c2ncn(C(C)C)c2n1 too.
Key: > 10 µM

Exercise: Please give the result for CC(C)[C@H](CO)Nc1nc(Nc2cncnc2)c2ncn(C(C)C)c2n1 too.
Key: 5 µM

Exercise: Please give the result for CC(C)[C@@H](CO)Nc1nc(Nc2cccnc2)c2ncn(C(C)C)c2n1 too.
Key: > 10 µM

Exercise: Please give the result for CC(C)[C@@H](CO)Nc1nc(Nc2ccnnc2)c2ncn(C(C)C)c2n1 too.
Key: 4.3 µM

Exercise: Please give the result for CC(C)[C@H](CO)Nc1nc(Nc2ccncn2)c2ncn(C(C)C)c2n1 too.
Key: > 10 µM

Exercise: Please give the result for CC[C@@H](CO)Nc1nc(Nc2ccccn2)c2ncn(C(C)C)c2n1 too.
Key: 21 µM

Exercise: Please give the result for CC(C)[C@@H](CO)Nc1nc(Nc2ncccn2)c2ncn(C(C)C)c2n1 too.
Key: > 10 µM

###

- Experimental Target: Glycogen synthase kinase-3 (Sus scrofa, UniProt B2LUN4+I6LNT8)
- Experiment Description: Inhibition of porcine GSK-3alpha/beta using YRRAAVPPSPSLSRHSSPHQSpEDEEE as substrate measured after 30 mins by scintillation counting
Listed below: IC50 values for each entry.
Your answer is read as µM, so omit the unit and give the number.

1. CC[C@@H](CO)Nc1nc(Nc2ccnnc2)c2ncn(C(C)C)c2n1 | 7.3
2. CC[C@H](CO)Nc1nc(Nc2ccccn2)c2ncn(C(C)C)c2n1 | 33
3. CC[C@H](CO)Nc1nc(Nc2cccnc2)c2ncn(C(C)C)c2n1 | 10

Exercise: I'd like to know its IC50. The molecule in question is CC(C)[C@H](CO)Nc1nc(Nc2ccncc2)c2ncn(C(C)C)c2n1
Key: 12

Exercise: Please give the result for CC(C)[C@@H](CO)Nc1nc(Nc2ccncn2)c2ncn(C(C)C)c2n1 too.
Key: 22
